Reported pIC50 by item:
target: Lysophosphatidic acid receptor 1 (Rattus norvegicus, UniProt P61794); test: Antagonist activity at LPA1 receptor in rat hepatic stellate cells assessed as inhibition of lysophosphatidic acid-induced intracellular calcium influx
Sequence (P61794 whole entry): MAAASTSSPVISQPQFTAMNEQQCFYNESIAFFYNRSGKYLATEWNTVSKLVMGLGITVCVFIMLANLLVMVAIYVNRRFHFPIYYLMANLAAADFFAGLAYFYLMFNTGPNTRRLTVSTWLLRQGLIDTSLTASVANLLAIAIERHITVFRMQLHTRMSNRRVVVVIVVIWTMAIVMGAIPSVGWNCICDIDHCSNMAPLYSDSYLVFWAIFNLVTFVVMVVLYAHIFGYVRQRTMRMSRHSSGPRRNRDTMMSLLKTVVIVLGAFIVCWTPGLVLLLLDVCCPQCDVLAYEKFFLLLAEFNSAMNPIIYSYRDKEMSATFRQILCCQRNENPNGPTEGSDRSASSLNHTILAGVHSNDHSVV
Scale note: pIC50 = -log10(concentration in M).

1) Cc1noc(-c2ccc(CSCCC(=O)O)cc2)c1NC(=O)OC(C)c1ccccc1Cl (configuration not stated); 6.80
2) CC(OC(=O)Nc1conc1-c1ccc(CSCCS(=O)(=O)O)cc1)c1ccccc1Cl (configuration not stated); 7.13
3) CC(OC(=O)Nc1conc1-c1ccc(NC(=O)CCC(=O)O)cc1)c1ccccc1Cl (configuration not stated); 7.14
4) CC(OC(=O)Nc1conc1-c1ccc(CCSCC(=O)O)cc1)c1ccccc1Cl (configuration not stated); 7.00
5) CC(OC(=O)Nc1conc1-c1ccc(CS(=O)(=O)CCC(=O)O)cc1)c1ccccc1Cl (configuration not stated); 6.96
6) CC(OC(=O)Nc1conc1-c1ccc(CCCCC(=O)O)cc1)c1ccccc1Cl (configuration not stated); 7.14

GET /values?readout=pIC50&item= CC(OC(=O)Nc1conc1-c1ccc(CCC(C)(C)CC(=O)O)cc1)c1ccccc1Cl (configuration not stated) 6.92

GET /values?readout=pIC50&item= CC(OC(=O)Nc1conc1-c1ccc(CSCCC(=O)O)cc1)C1=C(Cl)CCC1 (configuration not stated) 7.54

GET /values?readout=pIC50&item= CC(OC(=O)Nc1conc1-c1ccc(CSCCC(=O)O)cc1)C1=C(Cl)CCCC1 (configuration not stated) 7.25

GET /values?readout=pIC50&item= CC(OC(=O)Nc1cnoc1-c1ccc(CSCCC(=O)O)cc1)c1ccccc1Cl (configuration not stated) 7.09

GET /values?readout=pIC50&item= CC(OC(=O)Nc1conc1-c1ccc(CSCCC(=O)O)cc1)c1ccccc1Cl (configuration not stated) 7.31

###

target: Lysophosphatidic acid receptor 1 (Homo sapiens, UniProt Q92633); test: Antagonist activity at human recombinant LPA1 receptor expressed in CHOK1 cells assessed as inhibition of lysophosphatidic acid-induced intracellular calcium influx
Sequence (Q92633 whole entry): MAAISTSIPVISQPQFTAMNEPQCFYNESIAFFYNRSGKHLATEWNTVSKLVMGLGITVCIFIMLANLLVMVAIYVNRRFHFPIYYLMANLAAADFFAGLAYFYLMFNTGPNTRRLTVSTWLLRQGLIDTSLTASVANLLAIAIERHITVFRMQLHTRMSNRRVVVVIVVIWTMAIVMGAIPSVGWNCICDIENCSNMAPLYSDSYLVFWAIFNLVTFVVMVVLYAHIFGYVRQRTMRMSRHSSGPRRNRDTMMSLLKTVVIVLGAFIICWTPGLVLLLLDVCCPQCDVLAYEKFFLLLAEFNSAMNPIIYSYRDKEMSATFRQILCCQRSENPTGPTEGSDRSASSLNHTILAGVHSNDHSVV
parameter.measured: pIC50
Scale note: pIC50 = -log10(concentration in M).

Some molecules with known pIC50 results, for comparison:
1. CC(OC(=O)Nc1conc1-c1ccc(CCSCC(=O)O)cc1)c1ccccc1Cl (configuration not stated); 6.89
2. CC(OC(=O)Nc1conc1-c1ccc(CSCCC(=O)O)cc1)C1=C(Cl)CCC1 (configuration not stated); 6.89

Record lookup: for Lysophosphatidic acid receptor 1 (Homo sapiens, UniProt Q92633), what pIC50 belongs to Cc1noc(-c2ccc(CSCCC(=O)O)cc2)c1NC(=O)OC(C)c1ccccc1Cl (configuration not stated) ? 6.29

Record lookup: for Lysophosphatidic acid receptor 1 (Homo sapiens, UniProt Q92633), what pIC50 belongs to CC(OC(=O)Nc1conc1-c1ccc(CCCCC(=O)O)cc1)c1ccccc1Cl (configuration not stated) ? 6.70

Record lookup: for Lysophosphatidic acid receptor 1 (Homo sapiens, UniProt Q92633), what pIC50 belongs to CC(OC(=O)Nc1conc1-c1ccc(CCC(C)(C)CC(=O)O)cc1)c1ccccc1Cl (configuration not stated) ? 6.43

Record lookup: for Lysophosphatidic acid receptor 1 (Homo sapiens, UniProt Q92633), what pIC50 belongs to CC(OC(=O)Nc1conc1-c1ccc(CS(=O)(=O)CCC(=O)O)cc1)c1ccccc1Cl (configuration not stated) ? 6.55

Record lookup: for Lysophosphatidic acid receptor 1 (Homo sapiens, UniProt Q92633), what pIC50 belongs to CC(OC(=O)Nc1conc1-c1ccc(CSCCS(=O)(=O)O)cc1)c1ccccc1Cl (configuration not stated) ? 6.37
